assay method text: physchem
conditions used: water, solubility of paracetamol

{"compound": "CC(=O)Nc1ccc(O)cc1 [paracetamol, p-acetylaminophenol]", "solubility": "~14 mg/mL"}
